target: Fuc(a1-2)Gal(b1-3)[Fuc(a1-4)]GlcNAc(b1-2)Man(a1-3)[Fuc(a1-2)Gal(b1-3)[Fuc(a1-4)]GlcNAc(b1-2)Man(a1-3)]Man(b1-4)GlcNAc(b1-4)GlcNAc; assay: glycan array binding signal (z-score within array); higher = stronger binding; settings: glycan notation: IUPAC condensed, linker removed
The entries come from a sample that favours the strongest signals as a whole.
Observation type: glycan array binding signal (z-score)
Enter a number only.

Binder	Numeric result
Pbx2CASH domain (Cryptococcus neoformans) (protein) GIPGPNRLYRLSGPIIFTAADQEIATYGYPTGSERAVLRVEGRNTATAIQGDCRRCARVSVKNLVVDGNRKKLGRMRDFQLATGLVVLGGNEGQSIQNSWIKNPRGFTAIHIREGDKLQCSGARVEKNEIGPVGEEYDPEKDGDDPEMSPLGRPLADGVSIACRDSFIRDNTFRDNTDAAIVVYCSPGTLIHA	0.448

Continue with the next binder.
input: # query: glycan array binding signal (z-score) of entry Flo1 (Saccharomyces cerevisiae), P32768 (protein) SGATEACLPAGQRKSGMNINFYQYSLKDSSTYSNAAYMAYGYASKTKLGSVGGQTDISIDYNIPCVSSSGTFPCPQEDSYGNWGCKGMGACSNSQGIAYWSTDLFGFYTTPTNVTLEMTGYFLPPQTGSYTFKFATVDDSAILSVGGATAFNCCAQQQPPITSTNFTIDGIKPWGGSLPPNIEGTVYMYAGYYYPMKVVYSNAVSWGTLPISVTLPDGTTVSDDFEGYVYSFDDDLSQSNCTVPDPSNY
output: -0.362
